Measured kon accompanies every entry in the list below.
ASSAY_TARGET: T1, recombinant human PAD4 (human, UniProt Q9UM07 1-663)
T1 construct: also called rhPAD4; hPAD4
T1 sequence (Q9UM07 whole entry): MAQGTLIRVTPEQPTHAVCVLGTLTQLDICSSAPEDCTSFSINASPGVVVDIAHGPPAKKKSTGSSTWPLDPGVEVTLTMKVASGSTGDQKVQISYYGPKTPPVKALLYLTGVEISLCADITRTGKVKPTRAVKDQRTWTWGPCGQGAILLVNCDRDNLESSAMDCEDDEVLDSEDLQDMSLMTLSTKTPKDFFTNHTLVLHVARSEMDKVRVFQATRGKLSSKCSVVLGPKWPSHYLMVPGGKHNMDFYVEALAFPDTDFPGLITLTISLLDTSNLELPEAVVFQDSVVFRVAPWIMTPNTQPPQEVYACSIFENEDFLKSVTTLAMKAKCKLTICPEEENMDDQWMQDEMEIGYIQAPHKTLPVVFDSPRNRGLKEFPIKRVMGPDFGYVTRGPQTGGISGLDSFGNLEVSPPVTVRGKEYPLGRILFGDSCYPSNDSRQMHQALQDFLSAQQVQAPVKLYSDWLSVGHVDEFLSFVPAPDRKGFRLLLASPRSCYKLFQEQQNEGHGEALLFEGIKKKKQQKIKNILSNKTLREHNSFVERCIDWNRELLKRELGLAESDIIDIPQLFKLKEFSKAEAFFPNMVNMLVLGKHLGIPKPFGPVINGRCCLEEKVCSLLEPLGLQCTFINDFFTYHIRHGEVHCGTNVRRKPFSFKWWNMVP
PROCEDURE_DETAILS: SPR 37 C, captured antibody, PAD4 analyte, 1 mM CaCl2
Procedure: Their binding to human PAD4 was measured by Surface Plasmon Resonance (SPR). SPR measurements were performed with a Biacore® 8K, 8K+, or T200 instrument (Cytiva). The association rate constants, kₒₙ, dissociation rate constants, koff, and equilibrium dissociation constants, KD, of the antibodies with PAD4 were determined from these SPR measurements. For SPR measurements, either an anti-human capture surface or Protein A surface (Cytiva catalog #29127555) was used. […]
OBSERVATION_TYPE: kon (M⁻¹ s⁻¹)

BINDER	OBSERVATION_TYPE	VAL
hz20-14 (antibody, V domains shown, light constant region not tied to this antibody) VH: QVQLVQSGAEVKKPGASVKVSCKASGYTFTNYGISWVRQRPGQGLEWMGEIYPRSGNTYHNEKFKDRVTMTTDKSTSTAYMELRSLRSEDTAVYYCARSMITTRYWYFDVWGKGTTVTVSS VL: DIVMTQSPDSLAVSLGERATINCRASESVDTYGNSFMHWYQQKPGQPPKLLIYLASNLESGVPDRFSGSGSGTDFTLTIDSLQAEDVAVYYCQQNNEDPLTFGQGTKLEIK	kon	340000
hz13-8 (antibody, V domains shown, light constant region not tied to this antibody) VH: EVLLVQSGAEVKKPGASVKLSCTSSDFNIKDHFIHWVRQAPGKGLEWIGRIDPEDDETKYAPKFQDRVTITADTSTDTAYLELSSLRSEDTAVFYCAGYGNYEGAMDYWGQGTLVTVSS VL: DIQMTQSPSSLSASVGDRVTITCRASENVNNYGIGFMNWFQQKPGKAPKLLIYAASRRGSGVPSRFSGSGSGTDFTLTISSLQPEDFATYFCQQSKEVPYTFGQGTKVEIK	kon	1.7e+06
hz20-3 (antibody, V domains shown, light constant region not tied to this antibody) VH: EVQLVQSGAEVKKPGASVKVSCKASGYTFTNYGISWVRQAPGQGLEWMGEIYPRSGNTYHNEKFKDRVTMTADKSTSTAYMELRSLRSDDTAVYFCARSMITTRYWYFDVWGQGTLVTVSS VL: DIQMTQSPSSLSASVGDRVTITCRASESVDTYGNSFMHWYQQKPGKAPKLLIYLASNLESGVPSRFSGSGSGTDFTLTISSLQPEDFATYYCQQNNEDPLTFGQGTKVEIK	kon	500000
hz20-10 (antibody, V domains shown, light constant region not tied to this antibody) VH: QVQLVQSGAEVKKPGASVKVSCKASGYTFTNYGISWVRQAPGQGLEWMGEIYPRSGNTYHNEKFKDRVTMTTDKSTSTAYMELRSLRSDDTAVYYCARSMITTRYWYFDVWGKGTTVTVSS VL: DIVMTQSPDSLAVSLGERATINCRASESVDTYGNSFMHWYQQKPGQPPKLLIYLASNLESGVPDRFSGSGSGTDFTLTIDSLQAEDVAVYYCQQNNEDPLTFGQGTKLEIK	kon	640000
hz13-7 (antibody, V domains shown, light constant region not tied to this antibody) VH: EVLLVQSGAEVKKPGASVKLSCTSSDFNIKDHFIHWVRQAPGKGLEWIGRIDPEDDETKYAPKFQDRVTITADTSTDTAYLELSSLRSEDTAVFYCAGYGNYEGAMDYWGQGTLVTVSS VL: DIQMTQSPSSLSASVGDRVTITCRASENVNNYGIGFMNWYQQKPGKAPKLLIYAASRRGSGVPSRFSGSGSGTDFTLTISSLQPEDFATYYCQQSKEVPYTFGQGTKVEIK	kon	1.2e+06
hz13-5 D31E (antibody, V domains shown, IgG1.3f; also called clone 13-based hz13-5 D31E) VH: EVLLVQSGAEVKKPGASVKLSCTSSDFNIKEHFIHWVRQAPGKGLEWMGRIDPEDDETKYAPKFQDRVTMTADTSTDTAYMELSSLRSEDTAVFYCAGYGNYEGAMDYWGQGTLVTVSS VL: DIQMTQSPSSLSASVGDRVTITCRASENVNNYGIGFMNWFQQKPGKAPKLLIYAASRRGSGVPSRFSGSGSGTDFTLTISSLQPEDFATYFCQQSKEVPYTFGQGTKVEIKR	kon	1.32e+06
hz13-10 (antibody, V domains shown, light constant region not tied to this antibody) VH: EVQLVQSGAEVKKPGATVKISCKVSDFNIKDHFIHWVQQAPGKGLEWMGRIDPEDDETKYAPKFQDRVTITADTSTDTAYMELSSLRSEDTAVYYCAGYGNYEGAMDYWGQGTTVTVSS VL: DVVMTQSPLSLPVTLGQPASISCRASENVNNYGIGFMNWFQQRPGQSPRLLIYAASRRGSGVPDRFSGSGSGTDFTLKISRVEEEDVGVYYCQQSKEVPYTFGGGTKVEIK	kon	2.2e+06
hz13-11 (antibody, V domains shown, light constant region not tied to this antibody) VH: EVQLVQSGAEVKKPGATVKISCTSSDFNIKDHFIHWVQQAPGKGLEWMGRIDPEDDETKYAPKFQDRVTITADTSTDTAYMELSSLRSEDTAVYYCAGYGNYEGAMDYWGQGTTVTVSS VL: DVVMTQSPLSLPVTLGQPASISCRASENVNNYGIGFMNWFQQRPGQSPRRLIYAASRRGSGVPDRFSGSGSGTDFTLKISRVEAEDVGVYYCQQSKEVPYTFGGGTKVEIK	kon	1.9e+06
hz20-11 (antibody, V domains shown, light constant region not tied to this antibody) VH: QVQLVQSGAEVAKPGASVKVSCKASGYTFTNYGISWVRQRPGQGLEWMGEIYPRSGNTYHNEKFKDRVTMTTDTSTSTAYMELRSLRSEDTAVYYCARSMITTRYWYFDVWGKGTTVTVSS VL: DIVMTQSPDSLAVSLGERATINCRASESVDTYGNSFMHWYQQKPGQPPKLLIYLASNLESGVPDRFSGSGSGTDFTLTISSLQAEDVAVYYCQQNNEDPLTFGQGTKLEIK	kon	300000
